# measurement.target: KCNT1 (KNa1.1, Slack) (Homo sapiens, UniProt Q5JUK3)
# method.notes: KCNT1-WT-Basal Patch Clamp Assay
# test.parameters: tetracycline inducible cell line (HEK-TREX); SyncroPatch 384PE automated patch clamp, perforated patch mode, room temperature, step from -80 mV to 0 mV
Listing: IC50 of selected compounds

INSERT INTO assay_data (compound, measurement_target, outcome_measure, endpoint_value) VALUES
  ('C[C@H](NC(=O)c1ccccc1)c1nc(-c2ccnc(C3CC3)c2)no1', 'KCNT1 (KNa1.1, Slack) (Homo sapiens, UniProt Q5JUK3)', 'IC50', '≤ 1 µM'),
  ('C[C@H](NC(=O)Cc1ccccc1)c1nc(-c2ccnc(C3CC3)c2)no1', 'KCNT1 (KNa1.1, Slack) (Homo sapiens, UniProt Q5JUK3)', 'IC50', '≤ 1 µM'),
  ('C[C@H](NC(=O)[C@H](C)c1ccccc1)c1nc(-c2ccnc(C(F)(F)F)c2)no1', 'KCNT1 (KNa1.1, Slack) (Homo sapiens, UniProt Q5JUK3)', 'IC50', '≤ 1 µM');

I would be grateful if you could share the reported IC50 for `C[C@H](NC(=O)c1cccnn1)c1nc(-c2ccnc(C(F)(F)F)c2)no1` . ≥ 20 µM

I would be grateful if you could share the reported IC50 for `C[C@H](NC(=O)c1ccncc1)c1nc(-c2ccnc(C(F)(F)F)c2)no1` . ≥ 20 µM

I would be grateful if you could share the reported IC50 for `CC(C)Oc1cc(-c2noc([C@H](C)NC(=O)NC(C)(C)C)n2)ccn1` . ≤ 1 µM

I would be grateful if you could share the reported IC50 for `C[C@H](NC(=O)C1(C)CC1)c1nc(-c2ccnc(C(F)(F)F)c2)no1` . 1 to 20 µM

I would be grateful if you could share the reported IC50 for `C[C@H](NC(=O)N(C)c1ccccc1)c1nc(-c2ccnc(C(F)(F)F)c2)no1` . ≤ 1 µM

I would be grateful if you could share the reported IC50 for `C[C@H](NC(=O)c1ccc(Cl)cc1)c1nc(-c2ccnc(C3CC3)c2)no1` . ≤ 1 µM

----------
Listing: IC50 of selected compounds
# measurement.target: KCNT1 (KNa1.1, Slack) (Homo sapiens, UniProt Q5JUK3)
# method.notes: KCNT1-WT-Basal Patch Clamp Assay
# test.parameters: tetracycline inducible cell line (HEK-TREX); SyncroPatch 384PE automated patch clamp, perforated patch mode, room temperature, step from -80 mV to 0 mV

Some compounds with known IC50 results, for comparison:
INSERT INTO results (compound, measurement_target, outcome_measure, endpoint_value) VALUES
  ('CC(C)Oc1cc(-c2noc([C@H](C)NC(=O)N3CCCCC3)n2)ccn1', 'KCNT1 (KNa1.1, Slack) (Homo sapiens, UniProt Q5JUK3)', 'IC50', '≤ 1 µM'),
  ('C[C@H](NC(=O)CC(C)(C)C)c1nc(-c2ccnc(C(F)(F)F)c2)no1', 'KCNT1 (KNa1.1, Slack) (Homo sapiens, UniProt Q5JUK3)', 'IC50', '1 to 20 µM'),
  ('CC(=O)N1CCC(C(=O)N[C@@H](C)c2nc(-c3ccnc(C(F)(F)F)c3)no2)CC1', 'KCNT1 (KNa1.1, Slack) (Homo sapiens, UniProt Q5JUK3)', 'IC50', '≥ 20 µM'),
  ('C[C@H](NC(=O)C1CCCN(C)C1)c1nc(-c2ccnc(C(F)(F)F)c2)no1 (some centres unmarked)', 'KCNT1 (KNa1.1, Slack) (Homo sapiens, UniProt Q5JUK3)', 'IC50', '≥ 20 µM'),
  ('C[C@H](NC(=O)c1cccnc1)c1nc(-c2ccnc(C(F)(F)F)c2)no1', 'KCNT1 (KNa1.1, Slack) (Homo sapiens, UniProt Q5JUK3)', 'IC50', '1 to 20 µM');

I would be grateful if you could share the reported IC50 for `C[C@H](NC(=O)c1ccc(C(F)(F)F)cn1)c1nc(-c2ccnc(C(F)(F)F)c2)no1` . 1 to 20 µM

I would be grateful if you could share the reported IC50 for `C[C@H](NC(=O)C1CCC(F)(F)CC1)c1nc(-c2ccnc(C(F)(F)F)c2)no1` . ≤ 1 µM

I would be grateful if you could share the reported IC50 for `Cc1ccccc1C(=O)N[C@@H](C)c1nc(-c2ccnc(C3CC3)c2)no1` . ≤ 1 µM

----------
Listing: pIC50 of selected compounds
# measurement.target: KCNT1 (KNa1.1, Slack) (Homo sapiens)
# method.notes: KCNT1-WT-Basal Patch Clamp Assay
# test.parameters: tetracycline inducible cell line (HEK-TREX); SyncroPatch 384PE automated patch clamp, perforated patch mode, room temperature, step from -80 mV to 0 mV
pIC50: −log10 of the molar value.

Some compounds with known pIC50 results, for comparison:
INSERT INTO assay_data (compound, outcome_measure, endpoint_value) VALUES
  ('C[C@H](NC(=O)C1CCC(O)CC1)c1nc(-c2ccnc(C(F)(F)F)c2)no1 (single isomer, unassigned) [Compound I-78]', 'pIC50', '≤ 4.70'),
  ('C[C@H](NC(=O)NC(C)(C)C)c1nc(-c2ccnc(C3CC3)c2)no1', 'pIC50', '≥ 6.00'),
  ('C[C@H](NC(=O)C1CC2(CCC2)C1)c1nc(-c2ccnc(C(F)(F)F)c2)no1', 'pIC50', '≥ 6.00'),
  ('C[C@H](NC(=O)C1CCCCN1C)c1nc(-c2ccnc(C(F)(F)F)c2)no1 (some centres unmarked)', 'pIC50', '≤ 4.70'),
  ('C[C@H](NC(=O)c1nccn1C1CCC1)c1nc(-c2ccnc(C3CC3)c2)no1', 'pIC50', '4.70 to 6.00'),
  ('C[C@H](NC(=O)c1cccc(Cl)c1)c1nc(-c2ccnc(C3CCC3)c2)no1', 'pIC50', '≥ 6.00');

I would be grateful if you could share the reported pIC50 for CC(NC(=O)c1ccc2c(c1)OCCO2)c1nc(-c2cccc(F)c2)no1 (centres unmarked) . 4.70 to 6.00

I would be grateful if you could share the reported pIC50 for `C[C@H](NC(=O)C1CCCCC1)c1nc(-c2ccnc(C(F)(F)F)c2)no1` . ≥ 6.00

----------
# measurement.target: KCNT1 (KNa1.1, Slack) (Homo sapiens, UniProt Q5JUK3)
# method.notes: KCNT1-WT-Basal Patch Clamp Assay
# test.parameters: tetracycline inducible cell line (HEK-TREX); SyncroPatch 384PE automated patch clamp, perforated patch mode, room temperature, step from -80 mV to 0 mV
outcome.measure: IC50

INSERT INTO assay_data (molecule, endpoint_value) VALUES
  ('C[C@H](NC(=O)c1cc(F)cc(F)c1)c1nc(-c2ccnc(C3CC3)c2)no1', '≤ 1000 nM'),
  ('CC(=O)N1CCCC(C(=O)N[C@@H](C)c2nc(-c3ccnc(C(F)(F)F)c3)no2)C1 (mixture of isomers)', '≥ 20000 nM'),
  ('C[C@H](NC(=O)[C@@H](C)c1ccccc1)c1nc(-c2ccnc(C3CC3)c2)no1', '≤ 1000 nM'),
  ('Cc1ccc(C(=O)N[C@@H](C)c2nc(-c3ccnc(C4CC4)c3)no2)cc1', '≤ 1000 nM'),
  ('C[C@H](NC(=O)c1ccccn1)c1nc(-c2ccnc(C(F)(F)F)c2)no1', '≥ 20000 nM');

I would be grateful if you could share the reported IC50 for C[C@H](NC(=O)C1CCC(O)CC1)c1nc(-c2ccnc(C(F)(F)F)c2)no1 (single isomer, unassigned) [Compound I-77] . ≥ 20000 nM

I would be grateful if you could share the reported IC50 for `C[C@H](NC(=O)C1CC(C)(C)C1)c1nc(-c2ccnc(C(F)(F)F)c2)no1` . ≤ 1000 nM

I would be grateful if you could share the reported IC50 for `C[C@H](NC(=O)[C@H](C)c1ccccc1)c1nc(-c2ccnc(C3CC3)c2)no1` . ≤ 1000 nM

I would be grateful if you could share the reported IC50 for `Cc1cc(C(=O)N[C@@H](C)c2nc(-c3ccnc(C4CC4)c3)no2)ccn1` . ≤ 1000 nM

I would be grateful if you could share the reported IC50 for `C[C@H](NC(=O)c1ccnc(C(F)(F)F)c1)c1nc(-c2ccnc(C(F)(F)F)c2)no1` . ≤ 1000 nM

----------
# measurement.target: KCNT1 (KNa1.1, Slack) (Homo sapiens)
# Sequence (Q5JUK3 1-1230): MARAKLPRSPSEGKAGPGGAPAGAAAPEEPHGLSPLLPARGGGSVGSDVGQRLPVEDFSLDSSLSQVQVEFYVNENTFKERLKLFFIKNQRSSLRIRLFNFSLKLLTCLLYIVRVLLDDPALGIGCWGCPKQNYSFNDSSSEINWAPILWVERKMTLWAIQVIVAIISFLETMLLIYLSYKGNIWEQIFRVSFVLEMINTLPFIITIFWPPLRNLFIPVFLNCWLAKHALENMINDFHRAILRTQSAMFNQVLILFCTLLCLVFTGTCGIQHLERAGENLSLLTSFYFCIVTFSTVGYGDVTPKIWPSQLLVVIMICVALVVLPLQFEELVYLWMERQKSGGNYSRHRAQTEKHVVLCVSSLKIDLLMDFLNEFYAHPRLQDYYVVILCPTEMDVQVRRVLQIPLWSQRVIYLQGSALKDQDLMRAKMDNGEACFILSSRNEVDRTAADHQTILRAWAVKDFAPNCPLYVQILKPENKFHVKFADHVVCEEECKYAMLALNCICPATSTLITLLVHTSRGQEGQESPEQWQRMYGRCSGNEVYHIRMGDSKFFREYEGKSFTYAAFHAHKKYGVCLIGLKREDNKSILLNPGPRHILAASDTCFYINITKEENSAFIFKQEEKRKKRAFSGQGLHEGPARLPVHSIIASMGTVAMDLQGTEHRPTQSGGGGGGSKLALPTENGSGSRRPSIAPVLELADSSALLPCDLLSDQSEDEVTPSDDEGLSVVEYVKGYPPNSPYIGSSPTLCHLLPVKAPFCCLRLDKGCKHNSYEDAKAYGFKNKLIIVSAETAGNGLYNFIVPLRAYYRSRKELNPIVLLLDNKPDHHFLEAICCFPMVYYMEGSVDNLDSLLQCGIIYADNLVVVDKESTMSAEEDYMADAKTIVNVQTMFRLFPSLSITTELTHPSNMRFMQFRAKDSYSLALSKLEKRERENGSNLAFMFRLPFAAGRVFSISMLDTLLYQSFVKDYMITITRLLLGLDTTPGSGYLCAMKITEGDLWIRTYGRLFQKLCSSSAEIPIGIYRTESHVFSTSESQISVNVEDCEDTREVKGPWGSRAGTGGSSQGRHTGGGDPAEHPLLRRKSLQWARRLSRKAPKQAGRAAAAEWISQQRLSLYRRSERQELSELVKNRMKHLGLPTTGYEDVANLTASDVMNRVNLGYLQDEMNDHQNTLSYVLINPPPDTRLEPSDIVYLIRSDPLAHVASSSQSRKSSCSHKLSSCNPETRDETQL
# method.notes: KCNT1-WT-Basal Patch Clamp Assay
# test.parameters: tetracycline inducible cell line (HEK-TREX); SyncroPatch 384PE automated patch clamp, perforated patch mode, room temperature, step from -80 mV to 0 mV
Listing: IC50 of selected molecules

I would be grateful if you could share the reported IC50 for `COc1cccc(C(=O)N[C@@H](C)c2nc(-c3ccnc(C4CC4)c3)no2)c1` . ≤ 1000 nM

I would be grateful if you could share the reported IC50 for `C[C@H](NC(=O)N(C)C(C)(C)C)c1nc(-c2ccnc(C3CC3)c2)no1` . ≤ 1000 nM

I would be grateful if you could share the reported IC50 for `C[C@H](NC(=O)N1CCCCC1)c1nc(-c2ccnc(C(F)(F)F)c2)no1` . 1000 to 20000 nM

I would be grateful if you could share the reported IC50 for CC1CCCC1C(=O)N[C@@H](C)c1nc(-c2ccnc(C(F)(F)F)c2)no1 (stereo partly shown) . 1000 to 20000 nM
